Molecular target: wild type HIV-1 protease (Q7K) (Human immunodeficiency virus type 1 group M subtype B, UniProt P04585, Q495K)
Construct: Wide type HIV-1 protease (Q7K)
Test: FRET HIV-1 protease inhibition assay, wild type
Assay type: biochemical
propertyName: pKi
Here pKi is given on a logarithmic scale as minus log10 of the concentration in mol/L.

Given the compound COc1ccc(S(=O)(=O)N(CC(C)C)C[C@@H](O)[C@H](Cc2ccccc2)NC(=O)[C@@H]2CN(c3cccc(OC)c3)C(=O)O2)cc1 [21g] , write its reported pKi.
10.35

Give the reported value of pKi for this record: CC(=O)c1cccc(N2C[C@@H](C(=O)N[C@@H](Cc3ccccc3)[C@H](O)CN(CC(C)C)S(=O)(=O)c3ccc4c(c3)OCO4)OC2=O)c1 [26e]
11.22

Given CC(C)CN(C[C@@H](O)[C@H](Cc1ccccc1)NC(=O)[C@H]1CN(c2ccccc2)C(=O)O1)S(=O)(=O)c1ccc(N)cc1 [24a] , respond with its pKi.
7.43

---

pKi for assorted compounds
Molecular target: wild type HIV-1 protease (Q7K) (Human immunodeficiency virus type 1 group M subtype B, UniProt P04585, Q495K)
Construct: Wide type HIV-1 protease (Q7K)
Experiment: FRET HIV-1 protease inhibition assay, wild type
Assay type: biochemical
Conditions: wild type HIV-1 protease (Q7K), FRET, in triplicate; read-out: Ki
Value format note: pKi is -log10 of concentration (mol/L); just state the number.

# example entries with known answers
COc1cccc(S(=O)(=O)N(CC2CC2)C[C@@H](O)[C@H](Cc2ccccc2)NC(=O)[C@@H]2CN(c3ccc(C(C)=O)cc3)C(=O)O2)c1 [36f] | 10.10
CC(C)CN(C[C@@H](O)[C@H](Cc1ccccc1)NC(=O)[C@@H]1CN(c2ccccc2)C(=O)O1)S(=O)(=O)c1ccc(N)cc1 [25a] | 9.28

Read off the recorded pKi for COc1ccc(S(=O)(=O)N(CC(C)C)C[C@@H](O)[C@H](Cc2ccccc2)NC(=O)[C@@H]2CN(c3ccc(C(C)=O)cc3)C(=O)O2)cc1F [27f]
10.10

Give the reported value of pKi for this record: COc1ccc(S(=O)(=O)N(CC(C)C)C[C@@H](O)[C@H](Cc2ccccc2)NC(=O)[C@@H]2CN(c3ccc(F)c(F)c3)C(=O)O2)cc1F [27c]
9.46

Give a short answer stating reported pKi for CC(=O)c1ccc(N2C[C@@H](C(=O)N[C@@H](Cc3ccccc3)[C@H](O)CN(CC(C)C)S(=O)(=O)c3ccc4c(c3)OCO4)OC2=O)cc1 [26f] .
10.80

Respond only with pKi recorded for COc1ccc(S(=O)(=O)N(CC(C)C)C[C@@H](O)[C@H](Cc2ccccc2)NC(=O)[C@@H]2CN(c3cccc(C(F)(F)F)c3)C(=O)O2)cc1F [27d]
10.14

Could you please provide reported pKi for COc1ccc(S(=O)(=O)N(CC(C)C)C[C@@H](O)[C@H](Cc2ccccc2)NC(=O)[C@@H]2CN(c3cccc(F)c3)C(=O)O2)cc1F [27b] ? Thanks!
10.15

---

Biological target: wild type HIV-1 protease (Q7K) (Human immunodeficiency virus type 1 group M subtype B, UniProt P04585, Q495K)
Construct: Wide type HIV-1 protease (Q7K)
Assay: FRET HIV-1 protease inhibition assay, wild type
Type: biochemical
Details: wild type HIV-1 protease (Q7K), FRET, in triplicate; read-out: Ki
Label key: TRUE means Ki under 0.1 nM; FALSE means Ki of 0.1 nM or more.

Before answering, review these 4 worked examples.
COc1cccc(S(=O)(=O)N(CC2CC2)C[C@@H](O)[C@H](Cc2ccccc2)NC(=O)[C@@H]2CN(c3cccc(F)c3)C(=O)O2)c1 [36b] | FALSE
CC(C)CN(C[C@@H](O)[C@H](Cc1ccccc1)NC(=O)[C@@H]1CN(c2cccc(C(F)(F)F)c2)C(=O)O1)S(=O)(=O)c1ccc2c(c1)OCO2 [26d] | TRUE
COc1cccc(S(=O)(=O)N(CC2CC2)C[C@@H](O)[C@H](Cc2ccccc2)NC(=O)[C@@H]2CN(c3ccc(F)c(F)c3)C(=O)O2)c1 [36c] | FALSE
COc1ccc(S(=O)(=O)N(CC(C)C)C[C@@H](O)[C@H](Cc2ccccc2)NC(=O)[C@@H]2CN(c3ccc(F)c(F)c3)C(=O)O2)cc1 [21c] | TRUE

Does the reported Ki of CC(C)CN(C[C@@H](O)[C@H](Cc1ccccc1)NC(=O)[C@@H]1CN(c2cccc(C(F)(F)F)c2)C(=O)O1)S(=O)(=O)c1ccc(N)cc1 [25d] stay below 0.1 nM?
TRUE

---

Biological target: wild type HIV-1 protease (Q7K) (Human immunodeficiency virus type 1 group M subtype B, UniProt P04585, Q495K)
Construct: Wide type HIV-1 protease (Q7K)
Assay: FRET HIV-1 protease inhibition assay, wild type
Format: biochemical
propertyName: Ki (nM)
Give just the number in nM; leave the unit off.

Look over these answered cases.
CC(=O)c1cccc(N2C[C@@H](C(=O)N[C@@H](Cc3ccccc3)[C@H](O)CN(CC(C)C)S(=O)(=O)c3ccc(N)cc3)OC2=O)c1 [25e] | 0.032
COc1ccc(S(=O)(=O)N(CC(C)C)C[C@@H](O)[C@H](Cc2ccccc2)NC(=O)[C@@H]2CN(c3cccc(C(F)(F)F)c3)C(=O)O2)cc1 [21d] | 0.006
COc1ccc(S(=O)(=O)N(CC(C)C)C[C@@H](O)[C@H](Cc2ccccc2)NC(=O)[C@H]2CN(c3ccccc3)C(=O)O2)cc1 [20a] | 10.7

Return Ki (reported value) for this molecule: COc1ccc(S(=O)(=O)N(CC(C)C)C[C@@H](O)[C@H](Cc2ccccc2)NC(=O)[C@@H]2CN(c3cccc(F)c3)C(=O)O2)cc1 [21b]
0.08
